For each of the molecules below, state its GI50.
Tested on: A549
Experimental Details: NCI tumour cell line growth inhibition, 48 h
Calls of active or inactive are those of the source. No stated cut-off is given here; in the data, active = GI50 up to about 1.1 µM and inactive = higher. Where a SMILES comes first, the peptide text is derived from it. The star is where a group is joined. X33 = O=C(c1ccc(-c2ccc(Cl)cc2Cl)o1)*

In: Returns the measured GI50 for the input molecule. Input: COc1ccc2nc(/C(N)=C\C#N)ccc2c1
Out: 47.2 µM (inactive)

In: NC(=O)c1c(-c2ccccc2)c(-c2ccccc2)cc2c(=O)c3ccccc3[nH]c12 ?
Out: 23.8 µM (inactive)

In: Nc1nc(N)c(Cn2ccnc2)c(O)n1 ?
Out: > 100 µM (inactive)

In: O=S1(=O)OCCOS(=O)(=O)C1Cl ?
Out: > 100 µM (inactive)

In: CCC(C)C(NC(=O)CNC(=O)C(Cc1ccccc1)NC(=O)C1CCCN1C(=O)c1ccc(-c2ccc(Cl)cc2Cl)o1)C(=O)OC (stereo not given) (X33-PFGI-OMe; configuration not given here) ?
Out: 23.9 µM (inactive)

In: COC(=O)C1=C(C(=O)OC)SC(=C2SCSC3=C2SC(C(=O)OC)=C(C(=O)OC)C32SC3=C(CCCC3)S2)S1 ?
Out: > 100 µM (inactive)

In: N/C(=N\N=C\c1cc2ccccc2s1)c1cnccn1 ?
Out: > 100 µM (inactive)

In: N#CC1=C(N)OC(c2cccc([N+](=O)[O-])c2)C1(C#N)C#N (stereo not given) ?
Out: 34.8 µM (inactive)

In: Cc1cccc(-n2c(=S)[nH]c3c(sc(=O)n3-c3ccccc3C)c2=O)c1 ?
Out: > 100 µM (inactive)

In: O=C(Nc1ccc(Cl)cc1Cl)c1c/c(=N\O)c2ccc(O)cc2o1 ?
Out: > 100 µM (inactive)

Data provenance is ChEMBL document CHEMBL1201862.
